# experimental_target: Carboxy-terminal domain RNA polymerase II polypeptide A small phosphatase 1 (Homo sapiens)
# assay_procedure: Scp-1 phosphatase inhibitors, primary screen, biochemical, colorimetric, uHTS (AID 493091);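 note: plate controls were DMSO wells with enzyme for no effect and wells lacking enzyme for full effect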
# conditions_used: Recombinant Scp1, phosphopeptide, malachite green phosphate absorbance; at 20 µM; active compounds read high
Out of some 340,000 compounds screened, about 3,000 (0.88%) were called active. Only a selection was taken, and actives are over-represented in it overall.
measurement_type: inhibition

// `Cc1ccccc1CSc1nnc(-c2ccccn2)n1N` : inhibition value = -3.67% (inactive)

// CC(C)NC(=O)C(c1ccc(F)cc1)N(C(=O)CCC(=O)Nc1ccccn1)c1ccccc1F (stereo not given) : inhibition value = -5.49% (inactive)

// `COCCCn1c(Cc2csc(Nc3cccc(Cl)c3)n2)nnc1SCC(=O)OC1CCCCC1` : inhibition value = 58.9% (active)

// `CC1CCN(C(=O)COC(=O)CCC(=O)c2cccs2)CC1` : inhibition value = 0.96% (inactive)

// `CCn1cc(C(=O)N2CCN(C3CCCCC3)CC2)c2cc(OC)c(OC)cc2c1=O` : inhibition value = 0% (inactive)

// Cc1cc(O)c(C2(O)C(=O)Nc3ccccc32)cc1C (stereo not given) : inhibition value = 2.83% (inactive)

// `CCOc1ccc(Nc2nc(Cc3nnc(SCC(=O)NC4CCCC4)n3C)cs2)cc1` : inhibition value = -5.22% (inactive)

// `COc1cc(/C=C/c2ccc(/C=C/c3cc(OC)c(OC)c(OC)c3)cc2)cc(OC)c1OC` : inhibition value = 4.65% (inactive)

// `COc1ccc(S(=O)(=O)N2CCC(C(=O)N3CCCC3)CC2)cc1C` : inhibition value = -3.35% (inactive)

// `CN(c1ccccc1)S(=O)(=O)c1ccc(Cl)c(C(=O)OCC(N)=O)c1` : inhibition value = -10.7% (inactive)

Sourced from PubChem BioAssay AID493091
